# Tested on: 786-0 renal
# assayText: NCI-60 one-dose screen, 48 h (100 = growth as untreated, 0 = no growth, -100 = all killed)
# conditionSet: 10 µM unless noted
About 83,000 compounds went through this panel and 20% of them were active in at least one assay; those are over-represented in the sample as a whole.
measurementType: growth (%)
Please respond with the number in % and leave the unit unwritten.

I am curious: what growth value has been reported for COc1ccc(-c2nc3ccc(-c4nnc(SCc5ccccc5)o4)cc3[nH]2)cc1OC ?
-33.5

Try the compound COc1ccc(N=Nc2c(N)nn3c(-c4ccc([N+](=O)[O-])cc4)ccnc23)cc1
93

Try the compound Cc1cc(C2(c3cc(C)c(OCC(O)CNc4c(C)n(C)n(-c5ccccc5)c4=O)cc3C(C)C)OC(=O)c3ccccc32)c(C(C)C)cc1OCC(O)CNc1c(C)n(C)n(-c2ccccc2)c1=O (configuration not stated)
24.2

Try the compound COc1ccc(Nc2nnc(-c3c[nH]c4ccccc34)o2)cc1
91.9

Try the compound O=Cc1cncc(-c2ccc3ncnc(N4CCc5cc(F)c(Cl)cc54)c3c2)c1
18

Try the compound O=C(Nc1ccc(Br)cc1)Nc1ccc(-c2ccc3c(c2)NC(=O)/C3=C\c2ccc[nH]2)cc1
61

Try the compound COC(=O)c1c(C(=O)OC)c2ccc3c4ccccc4ccc3n2c1C(=O)OC
100

Try the compound Cc1cccc(NCC(=O)N2CCN(c3ncnc4c3cnn4-c3ccccc3)CC2)c1
80.8

Try the compound CCCn1c(NC(=O)c2cccc(C(N)=O)c2)nc2cc(CN3CCCCC3)ccc21
9.97

Try the compound CCC(=O)c1cc(C(=O)OC)c2ccc3c4ccccc4ccc3n12
66.8

Try the compound Cc1nn(-c2ccccc2)c2nc(C)n(CC(=O)N/N=C/c3ccccc3O)c(=O)c12
18.5

Try the compound O=c1ccc(Cn2c(C(F)(F)F)cc3c(Cl)ncnc32)c[nH]1
102

Try the compound O=C(N=Nc1c(O)[nH]c2ccc(Cl)cc12)c1ccc2nc(-c3ccc(Cl)cc3)[nH]c2c1
-72.6

Try the compound O=c1[nH]c2ccccc2cc1CSc1ccccc1Nc1nccc(-c2ccc3c(c2)OCO3)n1
64.7

Try the compound COc1ccc(N=Nc2c(N)nn3c(-c4cc5cc(Br)ccc5oc4=O)ccnc23)cc1
5.11

Try the compound COc1ccc(N=Nc2c(N)nn3c(N)c(C#N)c(-c4ccc(C)cc4)nc23)cc1
80.9

Try the compound Cn1cc(-c2cc3nc(-c4cn(C)c5ncc(Br)cc45)cc(N)n3n2)c2cc(F)ccc21
-5.13

Try the compound O=C1Nc2cc(-c3ccc(NS(=O)(=O)c4ccc(-c5ccccc5)cc4)cc3)ccc2/C1=C/c1ccc[nH]1
58.4

Try the compound C=CC(=O)N1CCN(c2ccc3nc4c(nc3c2C(F)(F)F)C(=O)c2ncccc2C4=O)CC1
22

Try the compound COc1ccc(NC(=O)Cn2c(/C=C/c3cccc(Br)c3)nc3ccccc3c2=O)cc1
-44.4

Try the compound Cc1ccc(C(C(=O)NC2CCCCC2)N(Cc2ccccc2Cl)C(=O)c2ccc(CN3CCOCC3)o2)o1 (configuration not stated)
82.8

Try the compound O=C(CSc1nc2sc3c(c2c(=O)n1-c1ccc(Cl)cc1)CCCC3)NNC(=O)c1ccc(F)cc1
96.8

Try the compound COc1ccc2c(c1)c(-c1cc(N)n3nc(-c4c[nH]c5ccccc45)cc3n1)cn2C
-84.5

Try the compound O=C(N/N=C/c1ccc(Cl)o1)c1[nH]c2ccc(Br)cc2c1-c1ccccc1
-57.7

Try the compound O=C(CSc1nc2ccccc2c(=O)[nH]1)NNC(=O)c1ccccc1Cl
97.1

Try the compound Cc1ccc(C2CC(c3ccc(S(=O)(=O)NCCNc4nc(N(C)C)nc(N5CCOCC5)n4)cc3)=Nc3c(N)nc(N)nc3N2)cc1 (configuration not stated)
32.8

Try the compound COc1ccc2c(c1)N=c1c-2cc2c(O)[nH]c(=S)n2c1=O
35.3

Try the compound C=CCSc1nnc(-c2c(C)nc3sccn23)o1
89.8

Try the compound Cc1ccc(C(C)C)cc1Oc1cccc(-c2c(-c3ccc(C(F)(F)F)cc3)ncn2C2CCNCC2)n1
-90.8

Try the compound CN(C)c1nc(NCCNS(=O)(=O)c2ccc(C(=O)/C=C/c3ccc(F)cc3)cc2)nc(N2CCOCC2)n1
-55.7

Try the compound C=CC(=O)Nc1ccc(C(=O)/C=C/c2ccc(N(C)C)cc2)c(O)c1
-1.73

Try the compound O=C(/C=C1\C(=O)N(Cc2ccccc2)c2ccccc21)c1cc2ccccc2oc1=O
100

Try the compound Nc1cc(-c2c[nH]c3ccc(Br)cc23)nc2cc(-c3c[nH]c4ccccc34)nn12
-68.2

Try the compound CN(C)CCOc1ccc(C(=O)C2[C@H](c3ccc(Cl)cc3)[C@@H](c3ccccc3)NC23C(=O)Nc2ccc(Cl)cc23)cc1 (some centres not stated)
-94

Try the compound CC(=O)c1c2c(c3ccc4c5ccccc5ccc4n13)C(=O)c1ccccc1C2=O
78.5

Try the compound COc1c(B(O)O)cc(F)cc1-c1nc2ccc3[nH]ncc3c2c2c1COCC2
46.1

Try the compound CCCSc1nnc(-c2c(C)nc3sccn23)o1
92.8
